For each entry below, report its IC50 value.
- Test system: 134 cancer cell lines
- test_protocol: Cell viability assay (ATPlite, 72 hours), IC50 on cancer cell line panel
- particulars: Homo sapiens, NCI-H82, read-out: IC50 in cell proliferation assay, cell line NCI-H82

Worked cases, answers included:
[
  {
    "structure_string": "FC(F)(F)c1ccc(CNc2ccc(Cc3c[nH]c4ncc(Cl)cc34)cn2)cn1",
    "IC50": "> 31.6 µM"
  },
  {
    "structure_string": "Cn1cnc2c(F)c(Nc3ccc(Br)cc3Cl)c(C(=O)NOCCO)cc21",
    "IC50": "6.84 µM"
  }
]

For each of the compounds below, note its IC50.
1. O=C(Nc1cnn2ccc(N3CCC[C@@H]3c3cc(F)ccc3F)nc12)N1CC[C@H](O)C1
2. CCN1CCN(c2ccc(Nc3cc(N(C)C(=O)Nc4c(Cl)c(OC)cc(OC)c4Cl)ncn3)cc2)CC1
3. Cc1nc(NC(=O)N2CCC[C@H]2C(N)=O)sc1-c1ccnc(C(C)(C)C(F)(F)F)c1

> 31.6 µM
> 3.16 µM
11.1 µM

Report IC50, nothing else, for this compound: `CO[C@]1(C(=O)N[C@@H](C)c2ccc(-n3cc(F)cn3)nc2)CC[C@H](c2nc(C)cc(Nc3cc(C)[nH]n3)n2)CC1`
10.9 µM

----------
- test_target: panel of 255 wild-type kinases (Homo sapiens, UniProt Q16539)
- Sequence (Q16539 whole entry): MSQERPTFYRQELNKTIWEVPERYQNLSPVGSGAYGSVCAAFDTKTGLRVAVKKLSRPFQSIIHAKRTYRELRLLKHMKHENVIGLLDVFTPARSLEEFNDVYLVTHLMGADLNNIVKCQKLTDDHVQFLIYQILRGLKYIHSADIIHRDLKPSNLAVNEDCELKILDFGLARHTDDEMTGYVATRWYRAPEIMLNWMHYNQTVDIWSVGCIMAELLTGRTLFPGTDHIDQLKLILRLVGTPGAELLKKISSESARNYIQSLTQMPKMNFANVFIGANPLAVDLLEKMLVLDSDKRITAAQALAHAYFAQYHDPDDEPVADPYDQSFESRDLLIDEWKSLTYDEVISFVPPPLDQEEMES
- test_protocol: Kinase panel profiling at 1 µmol/L (MSA or IMAP), percentage inhibition
- Assay type: biochemical
- particulars: p38α; 1 µmol/L single concentration; read-out: %-inhibition, p38α
measured_endpoint: inhibition at 1 µM (%)
Numbers only, in %.

Worked cases, answers included:
[
  {
    "compound": "Cn1cnc2c(F)c(Nc3ccc(Br)cc3F)c(C(=O)NOCCO)cc21 [binimetinib]",
    "test_target": "panel of 255 wild-type kinases (Homo sapiens, UniProt Q16539)",
    "inhibition at 1 µM, %": -8
  },
  {
    "compound": "Cc1cc(Nc2ncnc3ccc(NC4=NC(C)(C)CO4)cc23)ccc1Oc1ccn2ncnc2c1 [tucatinib]",
    "test_target": "panel of 255 wild-type kinases (Homo sapiens, UniProt Q16539)",
    "inhibition at 1 µM, %": 1.53
  },
  {
    "compound": "CCn1c(=O)c(-c2cc(NC(=O)Nc3ccccc3)c(F)cc2Br)cc2cnc(NC)cc21 [ripretinib]",
    "test_target": "panel of 255 wild-type kinases (Homo sapiens, UniProt Q16539)",
    "inhibition at 1 µM, %": 88
  },
  {
    "compound": "CO[C@]1(C(=O)N[C@@H](C)c2ccc(-n3cc(F)cn3)nc2)CC[C@H](c2nc(C)cc(Nc3cc(C)[nH]n3)n2)CC1 [pralsetinib]",
    "test_target": "panel of 255 wild-type kinases (Homo sapiens, UniProt Q16539)",
    "inhibition at 1 µM, %": 3
  },
  {
    "compound": "O=C(Nc1cnn2ccc(N3CCC[C@@H]3c3cc(F)ccc3F)nc12)N1CC[C@H](O)C1 [larotrectinib]",
    "test_target": "panel of 255 wild-type kinases (Homo sapiens, UniProt Q16539)",
    "inhibition at 1 µM, %": -1.34
  },
  {
    "compound": "C[C@H](Nc1ncnc2nc[nH]c12)c1cc2cccc(Cl)c2c(=O)n1-c1ccccc1 [duvelisib]",
    "test_target": "panel of 255 wild-type kinases (Homo sapiens, UniProt Q16539)",
    "inhibition at 1 µM, %": 5
  },
  {
    "compound": "CCN1C(=O)N(c2c(F)c(OC)cc(OC)c2F)Cc2cnc3[nH]c(CN4CCOCC4)cc3c21 [pemigatinib]",
    "test_target": "panel of 255 wild-type kinases (Homo sapiens, UniProt Q16539)",
    "inhibition at 1 µM, %": 14
  }
]

API: the following record is the query input.
Return reported inhibition at 1 µM for target or system panel of 255 wild-type kinases (Homo sapiens, UniProt Q16539), item Cc1nc(NC(=O)N2CCC[C@H]2C(N)=O)sc1-c1ccnc(C(C)(C)C(F)(F)F)c1 [alpelisib] .
2.59
